# tested system: NCP (nucleosome core particle) (Homo sapiens, UniProt P04908+P06899+P62805+P68431)
# Construct: made in house; host or cells: E. coli BL21(DE3)-RIL
# assay text: biochemical
# Type: binding
pKd: −log10 of the molar value. Residues, ends and D or L forms follow the SMILES beside them.
Reported values of pKd for individual entries
measurement kind: pKd

CSCC[C@H](NC(=O)[C@@H]1CCCN1C(=O)[C@H](Cc1c[nH]cn1)NC(=O)[C@@H](NC(=O)[C@H](CO)NC(=O)[C@H](CCCCN)NC(=O)CNC(=O)CN)[C@@H](C)O)C(=O)N[C@H](C(=O)N[C@H](C(=O)N[C@@H](CCCNC(=N)N)C(=O)N[C@@H](CO)C(=O)N[C@@H](CCCCN)C(=O)N[C@@H](C)C(=O)N[C@@H](CC(=O)O)C(=O)N[C@@H](CCC(N)=O)C(=O)O)[C@@H](C)O)C(C)C | 6.38
CSCC[C@H](NC(=O)[C@@H]1CCCN1C(=O)[C@@H](N)Cc1c[nH]cn1)C(=O)N[C@H](C(=O)N[C@H](C(=O)N[C@@H](CCCNC(=N)N)C(=O)N[C@@H](CO)C(=O)N[C@@H](CCCCN)C(=O)N[C@@H](C)C(=O)N[C@@H](CC(=O)O)C(=O)N[C@@H](CCC(N)=O)C(=O)O)[C@@H](C)O)C(C)C [Δ476–480] (H-HPMVTRSKADQ-OH) | 4.92
CSCC[C@H](NC(=O)[C@@H]1CCCN1C(=O)[C@H](Cc1c[nH]cn1)NC(=O)[C@@H](NC(=O)[C@H](CO)NC(=O)[C@H](CCCCN)NC(=O)CNC(=O)CN)[C@@H](C)O)C(=O)N[C@H](C(=O)N[C@H](C(=O)N[C@@H](CCCNC(=N)N)C(=O)N[C@@H](CO)C(=O)N[C@@H](CCCCN)C(=O)N[C@@H](C)C(=O)N[C@@H](CC(=O)O)C(=O)N[C@@H](CCC(N)=O)C(=O)O)C(C)C)C(C)C [T485V] (H-GGKSTHPMVVRSKADQ-OH) | 4.95
CSCC[C@H](NC(=O)[C@@H]1CCCN1C(=O)[C@H](C)NC(=O)[C@@H](NC(=O)[C@H](CO)NC(=O)[C@H](CCCCN)NC(=O)CNC(=O)CN)[C@@H](C)O)C(=O)N[C@H](C(=O)N[C@H](C(=O)N[C@@H](CCCNC(=N)N)C(=O)N[C@@H](CO)C(=O)N[C@@H](CCCCN)C(=O)N[C@@H](C)C(=O)N[C@@H](CC(=O)O)C(=O)N[C@@H](CCC(N)=O)C(=O)O)[C@@H](C)O)C(C)C [H481A] (H-GGKSTAPMVTRSKADQ-OH) | 4.36
